# IC50 per entry
target: Nicotinic acetylcholine receptor alpha6/alpha3/beta4 (Homo sapiens, UniProt P30926+P32297+Q15825); test: Antagonist activity at rat alpha6/alpha3beta4 nAChR expressed in xenopus oocytes assessed as inhibition of Ach- induced response at -70 mV holding potential preincubated for 5 mins followed by Ach stimulation by voltage-clamp based electrophysiological method; format: cell-based, Oocyte
Sequence (P30926 whole entry): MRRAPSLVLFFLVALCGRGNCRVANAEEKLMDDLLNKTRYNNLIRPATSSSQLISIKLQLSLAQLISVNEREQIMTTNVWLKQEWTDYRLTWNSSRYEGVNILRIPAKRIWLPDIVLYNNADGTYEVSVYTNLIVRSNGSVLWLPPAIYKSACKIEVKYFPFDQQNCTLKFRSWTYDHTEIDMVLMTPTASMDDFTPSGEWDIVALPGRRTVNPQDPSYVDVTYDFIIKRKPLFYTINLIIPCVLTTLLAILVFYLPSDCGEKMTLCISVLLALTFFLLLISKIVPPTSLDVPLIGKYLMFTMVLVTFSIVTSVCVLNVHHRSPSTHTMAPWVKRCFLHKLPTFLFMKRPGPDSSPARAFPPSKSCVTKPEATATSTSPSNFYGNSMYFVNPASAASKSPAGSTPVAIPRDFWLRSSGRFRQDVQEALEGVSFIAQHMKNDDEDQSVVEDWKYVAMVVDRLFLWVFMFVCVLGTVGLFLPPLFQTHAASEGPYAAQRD
Sequence (P32297 whole entry): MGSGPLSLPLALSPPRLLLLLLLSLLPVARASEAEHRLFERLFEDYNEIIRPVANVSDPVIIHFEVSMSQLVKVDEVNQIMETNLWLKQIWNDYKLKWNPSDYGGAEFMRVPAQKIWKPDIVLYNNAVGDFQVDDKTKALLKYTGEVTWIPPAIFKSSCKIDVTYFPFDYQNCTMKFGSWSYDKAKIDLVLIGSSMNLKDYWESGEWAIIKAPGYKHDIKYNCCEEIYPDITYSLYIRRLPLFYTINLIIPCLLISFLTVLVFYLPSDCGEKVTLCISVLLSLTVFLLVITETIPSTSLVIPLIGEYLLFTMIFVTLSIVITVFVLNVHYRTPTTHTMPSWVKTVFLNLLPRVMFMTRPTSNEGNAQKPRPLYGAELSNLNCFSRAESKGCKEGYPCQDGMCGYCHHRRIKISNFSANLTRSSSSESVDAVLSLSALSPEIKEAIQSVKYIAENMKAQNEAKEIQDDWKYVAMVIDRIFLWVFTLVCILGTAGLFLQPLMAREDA
Sequence (Q15825 whole entry): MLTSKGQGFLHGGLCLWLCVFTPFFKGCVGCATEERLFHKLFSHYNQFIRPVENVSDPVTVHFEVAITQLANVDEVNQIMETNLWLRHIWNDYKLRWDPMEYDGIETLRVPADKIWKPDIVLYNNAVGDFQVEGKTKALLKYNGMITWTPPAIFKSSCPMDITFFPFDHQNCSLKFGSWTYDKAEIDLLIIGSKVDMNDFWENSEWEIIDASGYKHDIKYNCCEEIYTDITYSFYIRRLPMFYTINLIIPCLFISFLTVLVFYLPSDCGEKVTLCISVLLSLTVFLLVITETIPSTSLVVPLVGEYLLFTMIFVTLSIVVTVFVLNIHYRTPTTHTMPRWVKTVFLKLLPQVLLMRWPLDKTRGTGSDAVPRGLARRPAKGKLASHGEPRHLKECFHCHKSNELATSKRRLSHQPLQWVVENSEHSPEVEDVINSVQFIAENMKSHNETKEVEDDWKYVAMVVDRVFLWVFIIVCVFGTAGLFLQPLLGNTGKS
Where a SMILES comes first, the peptide text is derived from it. Bridges are numbered along the chain shown (N, C = ends).

// known answers, use as guide
1. C[C@@H]1NC(=O)[C@@H]2CSSC[C@H](NC(=O)[C@@H](N)CCC(N)=O)C(=O)N[C@@H](CSSC[C@@H](C(=O)N[C@@H](CCCNC(=N)N)C(=O)O)NC(=O)[C@H](Cc3cnc[nH]3)NC(=O)[C@H](CCC(=O)O)NC(=O)[C@H](Cc3cnc[nH]3)NC1=O)C(=O)N[C@@H](CO)C(=O)N[C@@H](CC(N)=O)C(=O)N1CCC[C@H]1C(=O)N1CCC[C@H]1C(=O)N2 (H-QCCSNPPCAHEHCR-OH; disulfide 2-8, 3-13) :: > 10 µM
2. C[C@@H]1NC(=O)[C@@H]2CSSC[C@H](N)C(=O)N[C@@H](CSSC[C@@H](C(N)=O)NC(=O)[C@H](Cc3cnc[nH]3)NC(=O)[C@H](CCC(=O)O)NC(=O)[C@H](Cc3cnc[nH]3)NC1=O)C(=O)N[C@@H](CO)C(=O)N[C@@H](CC(N)=O)C(=O)N1CCC[C@H]1C(=O)N1CCC[C@H]1C(=O)N2 (H-CCSNPPCAHEHC-NH2; disulfide 1-7, 2-12) :: > 10 µM

We next turn to a different molecule, shown below.
Query :: Which IC50 value belongs to C[C@@H]1NC(=O)[C@@H]2CSSC[C@H](NC(=O)CN)C(=O)N[C@@H](CSSC[C@@H](C(=O)N[C@@H](CCCNC(=N)N)C(=O)O)NC(=O)[C@H](Cc3cnc[nH]3)NC(=O)[C@H](CCC(=O)O)NC(=O)[C@H](Cc3cnc[nH]3)NC1=O)C(=O)N[C@@H](CO)C(=O)N[C@@H](CC(N)=O)C(=O)N1CCC[C@H]1C(=O)N1CCC[C@H]1C(=O)N2 (H-GCCSNPPCAHEHCR-OH; disulfide 2-8, 3-13) ?
Result :: > 10 µM
